Assay: Drug concentration in plasma of C57BL/6 mouse implanted with mouse B16-F10 cells at 50 mg/kg, ip measured after 2 hrs by UPLC-MS/MS analysis
Type: ADME, organism-based
measurement_name: concentration at 2 h (ng/mL)
All answers are understood in ng/mL, so give the number only.

Task: Provide only the value of recorded concentration at 2 h for Cc1c(COc2cc(OCc3cccc(C#N)c3)c(CN3CCCCC3C(=O)NCCNC(=O)CCCC[C@@H]3SC[C@@H]4NC(=O)N[C@@H]43)cc2Cl)cccc1-c1ccccc1 (stereo partly specified)
Output: 1400

###

Each entry below lists one item and its recorded Vd value.
Assay: Apparent volume of distribution in Sprague-Dawley rat at 1 mg/kg, iv administered as single dose and measured after 48 hrs by HPLC-MS/MS analysis
Type: ADME, organism-based
Settings: in vivo, read-out: Vz
All answers are understood in L/kg, so give the number only.

molecule: Cc1c(COc2cc(OCc3cccc(C#N)c3)c(CN3CCCCC3C(=O)NCCNC(=O)CCCC[C@@H]3SC[C@@H]4NC(=O)N[C@@H]43)cc2Cl)cccc1-c1ccccc1 (some centres not stated)
Vd, L/kg: 31

Shift focus to the following entry.
Task: Provide only the value of recorded Vd for Cc1c(COc2cc(OCc3cccc(C#N)c3)c(CN3CCCCC3C(=O)NCCN)cc2Cl)cccc1-c1ccccc1 (configuration not stated)
Output: 5.3
